# Test system: UO-31 renal
# method: NCI tumour cell line growth inhibition, 48 h
readoutName: TGI

>  <compound>
Nc1ccc(-c2nc3cc(F)ccc3s2)cc1

>  <targetOfAssay>
UO-31 renal

>  <readoutName>
TGI

>  <reportedResult>
> 100 µM

$$$$
>  <compound>
Cc1[nH]nc(C(=O)Nc2n[nH]c3ccccc23)c1[N+](=O)[O-]

>  <targetOfAssay>
UO-31 renal

>  <readoutName>
TGI

>  <reportedResult>
> 100 µM

$$$$
>  <compound>
CC(C)(Oc1ccc(C(=O)c2ccc(Cl)cc2)cc1Cl)C(=O)N1CCN(c2ccccc2)CC1

>  <targetOfAssay>
UO-31 renal

>  <readoutName>
TGI

>  <reportedResult>
> 100 µM

$$$$
>  <compound>
C/C(=C/c1c(C)[nH]c(=O)[nH]c1=O)C(=O)O

>  <targetOfAssay>
UO-31 renal

>  <readoutName>
TGI

>  <reportedResult>
> 1380 µM

$$$$
>  <compound>
COc1cc([C@@H]2c3cc4c(cc3[C@@H](Nc3ccc(NC(=O)c5cc(NC(=O)c6cc([N+](=O)[O-])cn6C)cn5C)cc3)[C@H]3COC(=O)[C@H]23)OCO4)cc(OC)c1O

>  <targetOfAssay>
UO-31 renal

>  <readoutName>
TGI

>  <reportedResult>
> 53 µM

$$$$
>  <compound>
C=C1C(=O)O[C@H]2[C@H]1CC(=O)/C(C)=C\CC[C@@]1(C)O[C@@H]21

>  <targetOfAssay>
UO-31 renal

>  <readoutName>
TGI

>  <reportedResult>
5.85 µg/mL

$$$$
>  <compound>
Cc1ccc(Nc2nc(NS(=O)(=O)c3cc(C)c(Cl)cc3S)n[nH]2)cc1

>  <targetOfAssay>
UO-31 renal

>  <readoutName>
TGI

>  <reportedResult>
> 100 µM

$$$$
>  <compound>
COc1cnnc2c(C)c(-c3ccccc3)nn12

>  <targetOfAssay>
UO-31 renal

>  <readoutName>
TGI

>  <reportedResult>
> 100 µM

$$$$
>  <compound>
C=C1[C@H](OCC(C)C)[C@@H](OC(=O)C(C)CC)[C@@H](O)C(C)(C)/C=C/[C@H](C)C(=O)[C@@]2(O)C[C@H](C)[C@H](O)[C@@H]2[C@H]1OC(=O)C(C)CC (some centres undefined)

>  <targetOfAssay>
UO-31 renal

>  <readoutName>
TGI

>  <reportedResult>
> 5.12 µM

$$$$
>  <compound>
CCN1CCCCC(=N\O)/C(=N/O)CCCC1

>  <targetOfAssay>
UO-31 renal

>  <readoutName>
TGI

>  <reportedResult>
> 100 µM

$$$$
>  <compound>
NC(=S)N/N=C(\C(=O)Nc1ccc(Cl)c(Cl)c1)C1=NN(c2ccccc2)C(c2cccc([N+](=O)[O-])c2)CC1=O (centres undefined)

>  <targetOfAssay>
UO-31 renal

>  <readoutName>
TGI

>  <reportedResult>
> 100 µM

$$$$
>  <compound>
COc1ccc2c(c1)C(=O)c1c-2n(CCCCl)c(=O)c2cc(N(C)C)ccc12

>  <targetOfAssay>
UO-31 renal

>  <readoutName>
TGI

>  <reportedResult>
> 100 µM

$$$$
>  <compound>
CC(C)CC(=O)CC(O)C(Cl)(Cl)Cl (centres undefined)

>  <targetOfAssay>
UO-31 renal

>  <readoutName>
TGI

>  <reportedResult>
> 100 µM

$$$$
>  <compound>
C=CCC(C)(C(=O)NCCC)C(=O)c1ccccc1O (centres undefined)

>  <targetOfAssay>
UO-31 renal

>  <readoutName>
TGI

>  <reportedResult>
> 100 µM

$$$$

====

Readings of GI50 for the listed compounds
# Test system: T-47D breast
# method: NCI tumour cell line growth inhibition, 48 h
readoutName: GI50

>  <compound>
COc1ccc(/C=C/C(c2cc(OC)c(OC)c(OC)c2)n2cncn2)cc1O (stereo not drawn)

>  <reportedResult>
> 100 µM

$$$$
>  <compound>
C=C1C(=O)O[C@H]2[C@H]1CC/C(COC(=O)C(=O)c1cn(C)c3ccc(OC)cc13)=C\CC[C@@]1(C)O[C@@H]21

>  <reportedResult>
5.98 µM

$$$$
>  <compound>
COc1cc(/C=C/C(=O)c2cc(OC)c(OC)c(OC)c2)cc(OC)c1OC

>  <reportedResult>
3.5 µM

$$$$

====

The following molecules are shown together with reported TGI values.
# Tested on: HT29 colon
# method: NCI tumour cell line growth inhibition, 48 h

>  <molecule>
O=C(c1ccccc1)n1[nH]c(=O)n(-c2ccc(Cl)cc2)c1=O

>  <targetOfAssay>
HT29 colon

>  <unitInfo>
µM

>  <valuePrefix>
>

>  <TGI>
100

$$$$
>  <molecule>
Clc1ccc(-c2cn(-c3ccccc3)c(-c3ccccc3)n2)c(Cl)c1

>  <targetOfAssay>
HT29 colon

>  <unitInfo>
µM

>  <valuePrefix>
>

>  <TGI>
50

$$$$
>  <molecule>
CC1(CO)C(=O)OC12CCCCC2 (centres undefined)

>  <targetOfAssay>
HT29 colon

>  <unitInfo>
µM

>  <valuePrefix>
>

>  <TGI>
100

$$$$
>  <molecule>
COc1ccc(S(=O)(=O)N/N=C(\C)CN2C(=O)c3ccccc3C2=O)cc1

>  <targetOfAssay>
HT29 colon

>  <unitInfo>
µM

>  <valuePrefix>
>

>  <TGI>
100

$$$$
>  <molecule>
C=CCNc1cccc2c1C(=O)c1ccccc1C2(O)CC=C (centres undefined)

>  <targetOfAssay>
HT29 colon

>  <unitInfo>
µM

>  <valuePrefix>
=

>  <TGI>
36.7

$$$$
>  <molecule>
COc1ccc2sc3c(NCCCNCCO)nc4ccccc4c3c(=O)c2c1

>  <targetOfAssay>
HT29 colon

>  <unitInfo>
µM

>  <valuePrefix>
=

>  <TGI>
3.03

$$$$
>  <molecule>
CCOC(=O)CCC(NC(=O)c1ccc(NCc2ccc3nc(-c4ccccc4)c(Cl)nc3c2)c2ccccc12)C(=O)OCC (centres undefined)

>  <targetOfAssay>
HT29 colon

>  <unitInfo>
µM

>  <valuePrefix>
>

>  <TGI>
100

$$$$
>  <molecule>
CC(=O)OC1C(O)C(C)OC(OC(=O)C2CCC3C(C2)OC2(CC(OC(=O)/C=C/c4ccccc4)C(C)CO2)C32CO2)C1OC1OC(C)C(O)C(O)C1O (centres undefined)

>  <targetOfAssay>
HT29 colon

>  <unitInfo>
µM

>  <valuePrefix>
=

>  <TGI>
0.576

$$$$
>  <molecule>
CCc1nc(N)nc(N)c1-c1ccc(Cl)c(N=NN(C)C)c1

>  <targetOfAssay>
HT29 colon

>  <unitInfo>
µM

>  <valuePrefix>
>

>  <TGI>
91.4

$$$$
>  <molecule>
COc1ccc(Cn2cc(Cn3c(=O)c(-c4nc5ccccc5[nH]4)cc4ccccc43)nn2)c(OC)c1OC

>  <targetOfAssay>
HT29 colon

>  <unitInfo>
µM

>  <valuePrefix>
=

>  <TGI>
4.05

$$$$
>  <molecule>
CC(C)(C)OC(=O)N1C/C=C\C(=O)C2(OCCO2)c2ccccc21

>  <targetOfAssay>
HT29 colon

>  <unitInfo>
µM

>  <valuePrefix>
=

>  <TGI>
42

$$$$
>  <molecule>
C/C(=C/c1c(C)[nH]c(=O)[nH]c1=O)C(=O)O

>  <targetOfAssay>
HT29 colon

>  <unitInfo>
µM

>  <valuePrefix>
>

>  <TGI>
1380

$$$$
>  <molecule>
O=C1C(CN2CCCC2)CCCC1CN1CCCC1 (centres undefined)

>  <targetOfAssay>
HT29 colon

>  <unitInfo>
µM

>  <valuePrefix>
=

>  <TGI>
33.6

$$$$

====

Below, each entry is listed alongside its reported TGI.
# Tested on: SNB-19 CNS
# method: NCI tumour cell line growth inhibition, 48 h

>  <compound>
CCOC(=O)C12C(=O)CCN1CCc1ccccc1C2C (stereo not given)

>  <TGI>
> 100 µM

$$$$
>  <compound>
NC(=S)N/N=C(\C(=O)Nc1ccc(Cl)c(Cl)c1)C1=NN(c2ccccc2)C(c2cccc([N+](=O)[O-])c2)CC1=O (stereo not given)

>  <TGI>
> 100 µM

$$$$
>  <compound>
Cc1cccc(N2C(=O)C(=O)C(c3nc4ccccc4s3)C(=O)C2=O)c1C

>  <TGI>
> 100 µM

$$$$
>  <compound>
Oc1ccc(SCc2ccc(NCc3ccccc3)cc2)cc1

>  <TGI>
64.8 µM

$$$$
>  <compound>
CC(C)c1ccc(O)c(=O)cc1

>  <TGI>
> 71.4 µM

$$$$
>  <compound>
CSc1nc(=O)c(C#N)c(-c2ccccc2)n1C1OC(COC(C)=O)C(OC(C)=O)C(OC(C)=O)C1OC(C)=O (stereo not given)

>  <TGI>
> 100 µM

$$$$
>  <compound>
CC1CN=C(N(C)C(=O)Nc2ccc(Cl)c(Cl)c2)S1 (stereo not given)

>  <TGI>
> 100 µM

$$$$
>  <compound>
C=C(C(=O)OC)[C@@H]1C[C@@H](O)[C@]2(C)CC/C=C(\C)CCC[C@H](C)[C@H](O)C1O2

>  <TGI>
> 100 µM

$$$$
>  <compound>
Cc1nc(N)nc(N)c1N1CCN(Cc2ccccc2)CC1

>  <TGI>
> 100 µM

$$$$
>  <compound>
Nc1nc(Nc2ccc3c(c2)CCC(N2CCCC2)CC3)nn1-c1cc2c(nn1)-c1ccccc1CCC2 (stereo not given)

>  <TGI>
3.4 µM

$$$$
>  <compound>
COc1cc([C@@H]2c3cc4c(cc3[C@@H](Nc3ccc(NC(=O)c5cc(NC(=O)c6cc([N+](=O)[O-])cn6C)cn5C)cc3)[C@H]3COC(=O)[C@H]23)OCO4)cc(OC)c1O

>  <TGI>
> 55.1 µM

$$$$
>  <compound>
O=C1C(=O)c2c(nc3ncccn23)-c2ccccc21

>  <TGI>
0.722 µM

$$$$
>  <compound>
CC(C)(C)OC(=O)NCCNC(=O)CN(CC(=O)O)C1CCCCC1N(CC(=O)O)CC(=O)O (stereo not given)

>  <TGI>
> 100 µM

$$$$
>  <compound>
COc1ccc(N2C(=O)C3c4[nH]c5ccccc5c4C4CCC(C(C)(C)C)CC4C3C2=O)cc1OC (stereo not given)

>  <TGI>
71.3 µM

$$$$
>  <compound>
NCC(=O)CCC(=O)O

>  <TGI>
> 100 µM

$$$$

Every entry's value here was drawn from PubChem BioAssay (NCI).
